These entries and their values trace back to patent US8552029B2.

READOUT LABEL: melting point

Query block: Recorded melting point for Nc1ccc(-n2cc(C(=O)O)c(=O)c3cc(F)c(N/N=C/c4ccccc4)cc32)cc1 [Compound 7] , please?
Result block: 314 to 316 °C

Query block: Check Nc1ccc(-n2cc(C(=O)O)c(=O)c3cc(F)c(N/N=C/c4ccncc4)cc32)c(F)c1 [Compound 11] too.
Result block: 176 to 178 °C

Query block: Check Nc1ccc(-n2cc(C(=O)O)c(=O)c3cc(F)c(N/N=C/c4ccc(F)cc4)cc32)cc1 [Compound 8] too.
Result block: 308 to 310 °C

Query block: Check COc1ccc(/C=N/Nc2cc3c(cc2F)c(=O)c(C(=O)O)cn3-c2ccc(N)cc2)cc1 [Compound 9] too.
Result block: 307 to 309 °C

Query block: Check COc1ccc(/C=N/Nc2cc3c(cc2F)c(=O)c(C(=O)O)cn3-c2ccc(N)cc2F)cc1 [Compound 10] too.
Result block: 321 to 322 °C
